ASSAYED SYSTEM: T1, human prostate-specific membrane antigen (PSMA) (human, UniProt Q04609 1-750)
T1 construct: whole, on cells; also called PSMA+ C4-2B cells
T1 sequence (Q04609 whole entry): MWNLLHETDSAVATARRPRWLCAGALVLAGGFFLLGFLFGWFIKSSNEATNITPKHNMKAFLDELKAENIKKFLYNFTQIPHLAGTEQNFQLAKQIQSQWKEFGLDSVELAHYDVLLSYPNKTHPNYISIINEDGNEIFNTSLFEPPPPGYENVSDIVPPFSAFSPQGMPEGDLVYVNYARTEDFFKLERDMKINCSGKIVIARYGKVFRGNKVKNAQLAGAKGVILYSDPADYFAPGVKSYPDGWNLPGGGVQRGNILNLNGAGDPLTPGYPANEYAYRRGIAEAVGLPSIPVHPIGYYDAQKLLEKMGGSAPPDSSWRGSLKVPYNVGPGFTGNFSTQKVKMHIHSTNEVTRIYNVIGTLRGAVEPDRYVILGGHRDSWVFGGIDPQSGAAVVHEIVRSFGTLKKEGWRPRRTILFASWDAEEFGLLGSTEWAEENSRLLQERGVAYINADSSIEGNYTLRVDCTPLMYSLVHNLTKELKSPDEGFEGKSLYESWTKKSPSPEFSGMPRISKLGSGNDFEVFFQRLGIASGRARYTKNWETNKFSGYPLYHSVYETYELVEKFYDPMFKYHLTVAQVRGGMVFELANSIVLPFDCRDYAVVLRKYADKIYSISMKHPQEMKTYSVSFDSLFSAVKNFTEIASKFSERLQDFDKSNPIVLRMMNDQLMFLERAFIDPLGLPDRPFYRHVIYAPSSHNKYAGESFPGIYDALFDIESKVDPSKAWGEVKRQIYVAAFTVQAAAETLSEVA
EXPERIMENT DESCRIPTION: flow cytometry on C4-2B cells (PSMA+), AlexaFluor647 anti-human IgG secondary, MFI curve fit
pEC50: −log10 of the molar value.
PROPERTY: pEC50

[[record]]
binder = "anti-PSMA mAb-azide (site specific MTG) (antibody, human IgG4 S228P, kappa, F234A L235A, V domains shown, deglycosylated with PNGase F; 3-azido propylamine at Gln295 by microbial transglutaminase; CAR 2, Human IgG4; also called anti-PSMA mAb (MTG) mAb-azide) VH: EVQLLESGGGLVQPGGSLRLSCAASGFTFKSDAMHWVRQAPGKGLEWVSEISGSGGYTNYADSVKGRFTISRDNSKNTLYLQMNSLRAEDTAVYYCARDSYDSSLYVGDYFDYWGQGTLVTVSS VL: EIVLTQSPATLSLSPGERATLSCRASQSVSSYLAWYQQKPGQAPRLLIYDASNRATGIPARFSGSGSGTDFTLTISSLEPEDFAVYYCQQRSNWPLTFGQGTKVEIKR"
reported = 8.30

[[record]]
binder = "anti-PSMA mAb-DFO (random azide clicked with DFO-DBCO) (antibody, human IgG4 S228P, kappa, F234A L235A, V domains shown, random NHS-PEG4-azide on amines, clicked with unchelated DFO-DBCO, CAR 2.4, Human IgG4; also called anti-PSMA mAb (random azide) mAb-DFO) VH: EVQLLESGGGLVQPGGSLRLSCAASGFTFKSDAMHWVRQAPGKGLEWVSEISGSGGYTNYADSVKGRFTISRDNSKNTLYLQMNSLRAEDTAVYYCARDSYDSSLYVGDYFDYWGQGTLVTVSS VL: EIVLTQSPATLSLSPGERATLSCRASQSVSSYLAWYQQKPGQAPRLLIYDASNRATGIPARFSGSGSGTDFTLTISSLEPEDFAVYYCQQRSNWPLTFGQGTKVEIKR"
reported = 8.34

[[record]]
binder = "anti-PSMA mAb, deglycosylated (MTG samples) (antibody, human IgG4 S228P, kappa, F234A L235A, V domains shown, deglycosylated with Rapid PNGase F (all N-glycans released), Human IgG4; also called anti-PSMA mAb (MTG) Deglycosylated) VH: EVQLLESGGGLVQPGGSLRLSCAASGFTFKSDAMHWVRQAPGKGLEWVSEISGSGGYTNYADSVKGRFTISRDNSKNTLYLQMNSLRAEDTAVYYCARDSYDSSLYVGDYFDYWGQGTLVTVSS VL: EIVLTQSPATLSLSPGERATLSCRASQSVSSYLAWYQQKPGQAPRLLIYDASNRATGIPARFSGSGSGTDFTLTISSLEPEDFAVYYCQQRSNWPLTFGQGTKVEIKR"
reported = 8.47

